- Species: Homo sapiens
- Assay details: Selectivity index, ratio of IC50 for recombinant human HDAC3 to IC50 for recombinant human HDAC6
Threshold check on Ratio IC50: at or above 200 gives fulfilled, strictly below gives not fulfilled.

>>> label_value("CC(C)c1cc(C(=O)N2Cc3ccc(NC(=O)CCCC(=O)NO)cc3C2)c(O)cc1O")
"not fulfilled"
>>> label_value("CC(C)c1cc(C(=O)N2Cc3ccc(NCc4ccc(C(=O)NO)cc4)cc3C2)c(O)cc1O")
"fulfilled"
>>> label_value("CC(C)c1cc(C(=O)N2Cc3ccc(NC(=O)CCCCCCC(=O)NO)cc3C2)c(O)cc1O")
"not fulfilled"
>>> label_value("CC(C)c1cc(C(=O)N2Cc3ccc(NC(=O)CCCCCC(=O)NO)cc3C2)c(O)cc1O")
"fulfilled"
>>> label_value("CC(C)c1cc(C(=O)N2Cc3ccc(NC(=O)CCCCCCCCC(=O)NO)cc3C2)c(O)cc1O")
"fulfilled"
>>> label_value("CC(C)c1cc(C(=O)N2Cc3ccc(NC(=O)CCCCCCCC(=O)NO)cc3C2)c(O)cc1O")
"fulfilled"
>>> label_value("CC(C)c1cc(C(=O)N2Cc3ccc(/C=C/C(=O)NO)cc3C2)c(O)cc1O")
"not fulfilled"
>>> label_value("CC(C)c1cc(C(=O)N2Cc3ccc(NC(=O)CCCCC(=O)NO)cc3C2)c(O)cc1O")
"not fulfilled"

###

- Target or test system: Histone deacetylase 8 (Homo sapiens, UniProt Q9BY41)
- Assay details: Inhibition of recombinant human HDAC8 using RHK-K(Ac)-AMC as substrate by fluorescence based assay
pIC50: −log10 of the molar value.
Property label: pIC50

>>> numeric_result("CC(C)c1cc(C(=O)N2Cc3ccc(NC(=O)CCCCCCCCC(=O)NO)cc3C2)c(O)cc1O")
5.43
>>> numeric_result("CC(C)c1cc(C(=O)N2Cc3ccc(NC(=O)CCCCCC(=O)NO)cc3C2)c(O)cc1O")
5.70
>>> numeric_result("CC(C)c1cc(C(=O)N2Cc3ccc(/C=C/C(=O)NO)cc3C2)c(O)cc1O")
6.17
>>> numeric_result("CC(C)c1cc(C(=O)N2Cc3ccc(NC(=O)CCCCC(=O)NO)cc3C2)c(O)cc1O")
5.13

###

- Target or test system: Protein deacetylase HDAC6 (Homo sapiens)
- Sequence (Q9UBN7 whole entry): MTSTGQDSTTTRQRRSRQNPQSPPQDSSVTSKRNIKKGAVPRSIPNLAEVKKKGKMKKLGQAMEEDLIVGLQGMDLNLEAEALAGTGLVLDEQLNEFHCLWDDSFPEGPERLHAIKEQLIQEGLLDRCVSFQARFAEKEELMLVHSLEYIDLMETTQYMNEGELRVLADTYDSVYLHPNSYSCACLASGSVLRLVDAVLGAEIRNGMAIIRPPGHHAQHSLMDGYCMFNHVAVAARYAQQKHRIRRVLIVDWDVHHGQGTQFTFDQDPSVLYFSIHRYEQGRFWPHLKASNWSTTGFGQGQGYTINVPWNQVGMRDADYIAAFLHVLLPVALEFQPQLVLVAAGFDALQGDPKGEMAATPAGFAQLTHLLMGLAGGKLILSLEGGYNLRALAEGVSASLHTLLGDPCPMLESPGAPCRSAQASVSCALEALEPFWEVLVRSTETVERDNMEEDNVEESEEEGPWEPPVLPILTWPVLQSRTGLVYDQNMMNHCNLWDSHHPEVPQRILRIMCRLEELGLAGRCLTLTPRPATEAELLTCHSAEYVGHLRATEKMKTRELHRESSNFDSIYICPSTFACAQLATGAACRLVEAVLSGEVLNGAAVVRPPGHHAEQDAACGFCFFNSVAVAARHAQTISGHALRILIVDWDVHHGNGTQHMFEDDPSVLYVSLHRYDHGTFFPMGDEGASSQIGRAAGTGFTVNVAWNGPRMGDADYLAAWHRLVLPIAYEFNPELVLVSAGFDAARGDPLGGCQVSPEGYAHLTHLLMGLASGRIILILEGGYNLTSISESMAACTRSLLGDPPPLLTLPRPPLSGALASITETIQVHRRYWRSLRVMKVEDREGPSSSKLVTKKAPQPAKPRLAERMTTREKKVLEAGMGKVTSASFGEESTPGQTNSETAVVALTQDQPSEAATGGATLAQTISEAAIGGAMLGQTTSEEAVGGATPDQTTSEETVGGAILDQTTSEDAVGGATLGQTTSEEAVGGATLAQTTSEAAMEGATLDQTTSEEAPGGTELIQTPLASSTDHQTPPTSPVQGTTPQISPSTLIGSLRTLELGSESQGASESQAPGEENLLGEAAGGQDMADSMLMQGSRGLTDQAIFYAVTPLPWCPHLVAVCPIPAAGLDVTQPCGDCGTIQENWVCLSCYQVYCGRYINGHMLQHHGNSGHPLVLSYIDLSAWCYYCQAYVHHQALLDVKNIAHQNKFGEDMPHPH
- Assay details: Inhibition of recombinant human HDAC6 using RHK-K(Ac)-AMC as substrate by fluorescence based assay
Property label: IC50

>>> result("CC(C)c1cc(C(=O)N2Cc3ccc(/C=C/C(=O)NO)cc3C2)c(O)cc1O")
"303 nM"
>>> result("CC(C)c1cc(C(=O)N2Cc3ccc(NC(=O)CCCCCCCC(=O)NO)cc3C2)c(O)cc1O")
"2.12 nM"
>>> result("CC(C)c1cc(C(=O)N2Cc3ccc(NC(=O)CCCCCCCCC(=O)NO)cc3C2)c(O)cc1O")
"4.32 nM"
>>> result("CC(C)c1cc(C(=O)N2Cc3ccc(NC(=O)CCC(=O)NO)cc3C2)c(O)cc1O")
"> 10000 nM"

###

- Target or test system: Histone deacetylase 8 (Homo sapiens, UniProt Q9BY41)
- Sequence (Q9BY41 whole entry): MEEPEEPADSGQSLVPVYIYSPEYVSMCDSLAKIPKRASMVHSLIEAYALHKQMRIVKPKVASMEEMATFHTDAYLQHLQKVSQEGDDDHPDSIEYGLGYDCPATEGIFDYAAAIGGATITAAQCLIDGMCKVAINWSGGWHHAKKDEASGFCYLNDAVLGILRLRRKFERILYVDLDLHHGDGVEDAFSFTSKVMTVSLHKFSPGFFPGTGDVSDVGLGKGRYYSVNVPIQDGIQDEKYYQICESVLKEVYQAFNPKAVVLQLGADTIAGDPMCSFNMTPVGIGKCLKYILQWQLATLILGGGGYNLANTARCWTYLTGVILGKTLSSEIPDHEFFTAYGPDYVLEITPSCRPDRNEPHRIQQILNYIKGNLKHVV
- Assay details: Inhibition of recombinant human HDAC8 using RHK-K(Ac)-AMC as substrate by fluorescence based assay
pIC50: −log10 of the molar value.
Property label: pIC50

>>> numeric_result("CC(C)c1cc(C(=O)N2Cc3ccc(NCc4ccc(C(=O)NO)cc4)cc3C2)c(O)cc1O")
6.38
>>> numeric_result("CC(C)c1cc(C(=O)N2Cc3ccc(NC(=O)CCC(=O)NO)cc3C2)c(O)cc1O")
5.14
>>> numeric_result("CC(C)c1cc(C(=O)N2Cc3ccc(NC(=O)CCCCCCC(=O)NO)cc3C2)c(O)cc1O")
5.82
